procedure details: In vivo biodistribution of radiolabeled complexes in normal athymic mice
run conditions: non-tumor bearing mice, 4.00 hr; ± SD
Exercise: for every item that follows, state its recorded percent injected dose per gram, Spleen.
Answer with a number only, understood to be in % ID/g.

Lookup result for O=C(O)CNC(Cc1ccc([N+](=O)[O-])cc1)CN1CCN(CC(=O)O)CCN(CC(=O)O)CC1.[153Gd] (stereo not shown) [^153Gd-C-NE3TA] ; measured percent injected dose per gram, Spleen: 0.02

Lookup result for O=C(O)CNC(Cc1ccc([N+](=O)[O-])cc1)CN1CCN(CC(=O)O)CCN(CC(=O)O)CC1.[90Y] (stereo not shown) [^90Y-C-NE3TA] ; measured percent injected dose per gram, Spleen: 0.13

Lookup result for O=C(O)CNC(Cc1ccc([N+](=O)[O-])cc1)CN1CCN(CC(=O)O)CCN(CC(=O)O)CC1.[177Lu] (stereo not shown) [^177Lu-C-NE3TA] ; measured percent injected dose per gram, Spleen: 0.19

Lookup result for O=C([O-])CNC(Cc1ccc([N+](=O)[O-])cc1)CN1CCN(CC(=O)[O-])CCN(CC(=O)[O-])CC1.[Bi+3] (stereo not shown) [^205/6Bi-C-NE3TA] ; measured percent injected dose per gram, Spleen: 0.18

Reference for the values: patent US10189803B2
